Below is a list of entries, each paired with its recorded reduction fold (luciferase activity of mutant construct / wild type construct) value.
- Test system: Renilla luciferase expression
- testName: Renilla luciferase assay of HEK 293 cells transfected with pRL-SV40 constructs carrying U1 binding sites in the 3′ UTR
- Assay type: cell-based
- testSettings: compared to corresponding mutant construct
measurementKind: reduction fold (luciferase activity of mutant construct / wild type construct) (fold)

{"molecule": "2×U1-140 wt: 2 copies of wild type U1 binding sequence at −140 in pRL-SV40 (nucleic acid, in pRL-SV40; 2xU1-140 wt in pRL-SV40) DNA: TCAAATCGTTCGTTGAGCGAGTTCTCAAAAATGAACAATAATTCTAGACAGGTAAGTAACCAAACAGGTAAGTAGCGGCCGCTTCGAGCAGACATGATAAGATACATTGATGAGTTTGGACAAACCACAACTAGAATGCAGTGAAAAAAATGCTTTATTTGTGAAATTTGTGATGCTATTGCTTTATTTGTAACCATTATAAGCTGCAATAAACAAGTTAACAACAAC", "measValue": 272}
{"molecule": "U1-140 wt: consensus U1 binding sequence at −140 in pRL-SV40 (nucleic acid, in pRL-SV40; U1-140 wt in pRL-SV40) DNA: TCAAATCGTTCGTTGAGCGAGTTCTCAAAAATGAACAATAATTCTAGACAGGTAAGTAGCGGCCGCTTCGAGCAGACATGATAAGATACATTGATGAGTTTGGACAAACCACAACTAGAATGCAGTGAAAAAAATGCTTTATTTGTGAAATTTGTGATGCTATTGCTTTATTTGTAACCATTATAAGCTGCAATAAACAAGTTAACAACAAC", "measValue": 12}
{"molecule": "3×U1-140 wt: 3 copies of wild type U1 binding sequence at −140 in pRL-SV40 (nucleic acid, in pRL-SV40; 3xU1-140 wt in pRL-SV40) DNA: TCAAATCGTTCGTTGAGCGAGTTCTCAAAAATGAACAATAATTCTAGACAGGTAAGTAACCAAACAGGTAAGTAACCAAACAGGTAAGTAGCGGCCGCTTCGAGCAGACATGATAAGATACATTGATGAGTTTGGACAAACCACAACTAGAATGCAGTGAAAAAAATGCTTTATTTGTGAAATTTGTGATGCTATTGCTTTATTTGTAACCATTATAAGCTGCAATAAACAAGTTAACAACAAC", "measValue": 462}
{"molecule": "U1-87 wt: 10-nt consensus U1 binding sequence 87 nt upstream of poly(A) signal in 3′ UTR of pRL-SV40 (nucleic acid, in pRL-SV40; U1-87 wt in pRL-SV40) DNA: TCAAATCGTTCGTTGAGCGAGTTCTCAAAAATGAACAATAATTCTAGAGCGGCCGCTTCGAGCAGACATGATAAGATACATTGATGAGTTTGGACAAACCAGGTAAGTACAACTAGAATGCAGTGAAAAAAATGCTTTATTTGTGAAATTTGTGATGCTATTGCTTTATTTGTAACCATTATAAGCTGCAATAAACAAGTTAACAACAAC", "measValue": 50}
